Consider the following sequences and their measured protein stability index readings.
assay: protein stability index of a GFP-peptide fusion (GPS, HEK-293T) (PSI 1-6); higher = more stable; conditions: treatment: MLN4924 1 uM, 8 h; c terminus: a fixed tail appended;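 note: 24-mer peptide tiles fused after GFP, lentivirally expressed, FACS-sorted into six equal bins by GFP/DsRed ratio, decoded by Illumina sequencing, PSI is the read-weighted mean bin number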

# annotated cases, reported protein stability index shown
item.sequence: RLQQELEQQRCLLLARLRELEQQI [TRIM15]
protein stability index: 3.69
--
item.sequence: EEKQHLERLNKEYQEIFQQLQRSW [TRIM43]
protein stability index: 3.77
--
item.sequence: MAEESSCTRDCMSFSVLNWDQVSR [TENT5C]
protein stability index: 2.99

Query: Provide one value: measured protein stability index of SQTDRGASAGKRRCFWLGMEGLET [SDE2]
Reply: 2.96

Query: Please report the measured protein stability index for ELLREGRASATTTITTAAATSVTV [ZBTB22]
Reply: 3.48

Query: Fill in reported protein stability index for this entry: SWKESSMNIIELEIPDQNIDVEAL [GMCL1]
Reply: 4.08

Query: Query protein stability index for ELGQAVEVIYPQHSKLTDREKTNI [DENND6A]
Reply: 4.28
